target: human serum albumin (HSA) (human); assay: SPR Biacore T200, fusion protein captured by anti-VHH antibody, albumin as analyte
Assay endpoint: koff (s⁻¹)
Value expressed in s⁻¹; do not type the unit.

Reported koff for 0054 (other, also called positive control 0054; positive control molecule 0054) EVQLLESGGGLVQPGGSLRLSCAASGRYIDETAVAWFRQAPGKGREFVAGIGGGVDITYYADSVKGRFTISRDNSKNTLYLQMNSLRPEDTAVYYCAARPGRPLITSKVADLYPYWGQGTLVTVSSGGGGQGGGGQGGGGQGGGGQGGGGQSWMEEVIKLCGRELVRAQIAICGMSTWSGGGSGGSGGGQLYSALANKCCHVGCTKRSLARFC was 0.000563

Values were extracted from patent US20250312444A1.
